- experimentDescription: Pilot PK of FAH65 vs. verubecestat in rats
- Assay type: in vivo, rat
- cond: both sexes, Sprague-Dawley, rat, brain, oral gavage, 30 mg/kg
experimentalEndpoint: Cmax (ng/g)

compound="Cc1cc(C2(c3cccc(-c4cncnc4)c3)N=C(N)N(C)C2=O)ccc1OC(F)F (centres unmarked)" val=182
compound="CN1C(=N)N[C@](C)(c2cc(NC(=O)c3ccc(F)cn3)ccc2F)CS1(=O)=O [Veru, verubecestat, reference compound]" val=157

---

- measurementTarget: BACE1 cleavage of PSGL1 (Homo sapiens, UniProt P56817)
- Construct: with or without full-length wild-type BACE1
- Sequence (P56817 46-501): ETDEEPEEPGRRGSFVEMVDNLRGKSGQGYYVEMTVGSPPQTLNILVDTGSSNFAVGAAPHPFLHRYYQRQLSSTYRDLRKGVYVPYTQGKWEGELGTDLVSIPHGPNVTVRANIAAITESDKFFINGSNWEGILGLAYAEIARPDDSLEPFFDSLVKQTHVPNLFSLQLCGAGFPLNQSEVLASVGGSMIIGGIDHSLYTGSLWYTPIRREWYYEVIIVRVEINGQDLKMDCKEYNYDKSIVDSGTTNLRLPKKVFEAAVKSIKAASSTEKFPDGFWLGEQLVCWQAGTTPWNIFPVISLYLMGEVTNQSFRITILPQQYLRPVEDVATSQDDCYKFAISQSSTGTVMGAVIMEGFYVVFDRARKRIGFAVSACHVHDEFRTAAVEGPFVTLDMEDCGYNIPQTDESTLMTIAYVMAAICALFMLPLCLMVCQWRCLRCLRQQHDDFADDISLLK
- experimentDescription: PSGL1 assay (SEAP-PSGL1)
- cond: SEAP-PSGL1, HEK293
pEC50: −log10 of the molar value.
experimentalEndpoint: pEC50

compound="Cc1cc(C2(c3cccc(F)c3)N=C(N)N(C)C2=O)ccc1OC(F)F (centres unmarked) [FAH17]" val="< 5.00"

# ---- query compound ----
Query: Under BACE1 cleavage of PSGL1 (Homo sapiens, UniProt P56817): report pEC50 of Cc1cc(C2(c3cccc(-c4cncnc4)c3)N=C(N)N(C)C2=O)ccc1OC(F)F (centres unmarked) [FAH65] .
Reply: < 5.00

Origin of the recorded values: paper PMC12491701
